Field: MIC. Provide a value for each of the compounds that follow.
- Test system: Streptococcus pyogenes
- measurement.notes: Antimicrobial activity against Streptococcus pyogenes ATCC 19615 by standard broth microdilution method
- Assay type: functional
Numbers only, in µg/mL.

Completed entries (count: 3):
C[C@H]1COc2c(N3CC[C@@H](O)C3)c(F)cc3c(=O)c(C(=O)O)cn1c23	0.25
O=C(O)c1cn2c3c(c(N4CC[C@@H](O)C4)c(F)cc3c1=O)OC[C@@H]2CF	0.0625
C[C@H]1COc2c(N3CC[C@H](O)C3)c(F)cc3c(=O)c(C(=O)O)cn1c23	2

# context switch: different compound, same MIC
Quick one: give measured MIC for `O=C(O)c1cn2c3c(c(N4CCC(O)CC4)c(F)cc3c1=O)OC[C@@H]2CF`
0.031

----------
- Test system: Streptococcus pneumoniae
- measurement.notes: Antimicrobial activity against penicillin-resistant Streptococcus pneumoniae clinical isolates by standard broth microdilution method
- Format: functional
endpoint.label: MIC (µg/mL)
Give bare numbers, in µg/mL.

Completed entries (count: 2):
CC1(C)S[C@@H]2[C@H](NC(=O)Cc3ccccc3)C(=O)N2[C@H]1C(=O)O	1
C[C@H]1COc2c(N3CCC(O)CC3)c(F)cc3c(=O)c(C(=O)[O-])cn1c23.[Na+]	0.125

Go through the list and state MIC for each entry.
1. C[C@H]1COc2c(N3CC[C@H](O)C3)c(F)cc3c(=O)c(C(=O)O)cn1c23
2. C[C@H]1COc2c(N3CC[C@H](O)C3)c(F)cc3c(=O)c(C(=O)[O-])cn1c23.[K+]

1. 2
2. 4

Go through the list and state MIC for each entry.
1. O=C(O)c1cn2c3c(c(N4CCC(O)CC4)c(F)cc3c1=O)OC[C@@H]2CF
2. C[C@H]1COc2c(N3CC[C@@H](O)C3)c(F)cc3c(=O)c(C(=O)O)cn1c23
3. C[C@H]1COc2c(N3CC(O)C3)c(F)cc3c(=O)c(C(=O)O)cn1c23

1: 0.031; 2: 0.5; 3: 0.5

Go through the list and state MIC for each entry.
1. C[C@H]1COc2c(N3CCC(O)CC3)c(F)cc3c(=O)c(C(=O)[O-])cn1c23.[K+]
2. C[C@H]1COc2c(N3CCC(O)CC3)c(F)cc3c(=O)c(C(=O)O)cn1c23
3. O=C(O)c1cn2c3c(c(N4CC[C@H](O)C4)c(F)cc3c1=O)OC[C@@H]2CF
4. CN[C@H](CC(C)C)C(=O)N[C@H]1C(=O)N[C@@H](CC(N)=O)C(=O)N[C@H]2C(=O)N[C@H]3C(=O)N[C@H](C(=O)N[C@H](C(=O)O)c4cc(O)cc(O)c4-c4cc3ccc4O)[C@H](O)c3ccc(c(Cl)c3)Oc3cc2cc(c3O[C@@H]2O[C@H](CO)[C@@H](O)[C@H](O)[C@H]2O[C@H]2C[C@](C)(N)[C@H](O)[C@H](C)O2)Oc2ccc(cc2Cl)[C@H]1O
5. O=C(O)c1cn2c3c(c(N4CC[C@@H](O)C4)c(F)cc3c1=O)OC[C@@H]2CF

0.25
0.031
0.031
0.125
0.25

Quick one: give measured MIC for `C[C@H]1COc2c(N3CC[C@H](O)C3)c(F)cc3c(=O)c(C(=O)[O-])cn1c23.[Na+]`
4

----------
- System: Streptococcus pyogenes
- measurement.notes: Antimicrobial activity against Streptococcus pyogenes ATCC 19615 by standard broth microdilution method
- Assay type: functional
Field: log10 MIC. Provide a value for each of the compounds that follow.
Values below are the log10 of the recorded MIC, with µg/mL as the unit.

C[C@H]1COc2c(N3CCC(O)CC3)c(F)cc3c(=O)c(C(=O)O)cn1c23	-1.20

Go through the list and state log10 MIC for each entry.
1. C[C@H]1COc2c(N3CCC(O)CC3)c(F)cc3c(=O)c(C(=O)[O-])cn1c23.[K+]
2. C[C@H]1COc2c(N3CCC(O)CC3)c(F)cc3c(=O)c(C(=O)[O-])cn1c23.[Na+]
3. C[C@H]1COc2c(N3CCN(C)CC3)c(F)cc3c(=O)c(C(=O)O)cn1c23.C[C@H]1COc2c(N3CCN(C)CC3)c(F)cc3c(=O)c(C(=O)O)cn1c23.O
4. C[C@H]1COc2c(N3CC[C@H](O)C3)c(F)cc3c(=O)c(C(=O)[O-])cn1c23.[K+]

-0.60
-0.90
-0.30
0.60

Go through the list and state log10 MIC for each entry.
1. O=C(O)c1cn2c3c(c(N4CC(O)C4)c(F)cc3c1=O)OC[C@@H]2CF
2. COc1c(N2C[C@@H]3CCCN[C@@H]3C2)c(F)cc2c(=O)c(C(=O)O)cn(C3CC3)c12
3. CC1(C)S[C@@H]2[C@H](NC(=O)Cc3ccccc3)C(=O)N2[C@H]1C(=O)O
4. C[C@H]1COc2c(N3CC(O)C3)c(F)cc3c(=O)c(C(=O)O)cn1c23

1. -1.20
2. -0.60
3. 0.00
4. -0.90

Go through the list and state log10 MIC for each entry.
1. C[C@H]1COc2c(N3CC[C@H](O)C3)c(F)cc3c(=O)c(C(=O)[O-])cn1c23.[Na+]
2. CN[C@H](CC(C)C)C(=O)N[C@H]1C(=O)N[C@@H](CC(N)=O)C(=O)N[C@H]2C(=O)N[C@H]3C(=O)N[C@H](C(=O)N[C@H](C(=O)O)c4cc(O)cc(O)c4-c4cc3ccc4O)[C@H](O)c3ccc(c(Cl)c3)Oc3cc2cc(c3O[C@@H]2O[C@H](CO)[C@@H](O)[C@H](O)[C@H]2O[C@H]2C[C@](C)(N)[C@H](O)[C@H](C)O2)Oc2ccc(cc2Cl)[C@H]1O
3. O=C(O)c1cn(C2CC2)c2cc(N3CCNCC3)c(F)cc2c1=O

[0.60, -1.20, -0.30]

----------
- measurement.notes: Cmax in beagle dog at 18.8 mg/kg, iv administered as single dose
- Assay type: ADME, organism-based, Canis lupus familiaris
- Set-up: dose 18.8 mg/kg, route intravenous
- experimental.setup: in vivo
endpoint.label: Cmax (ng/mL)
Numbers only, in ng/mL.

Quick one: give measured Cmax for `C[C@H]1COc2c(N3CCC(O)CC3)c(F)cc3c(=O)c(C(=O)O)cn1c23.N=C(N)NCCC[C@H](N)C(=O)O.O`
15700

Where do the numbers come from? From ChEMBL document CHEMBL3608201.
